Each recorded value in this set is attributed to patent US20160106654A1.

- System: cyclobutane pyrimidine dimer (CPD) and 8-oxo-7,8-dihydro-2′-deoxyguanosine (8OHdG) formation, and protein carbonylation
- Experimental protocol: Combined protection score (CPD, 8OHdG, protein carbonylation), normalized for concentration
I'd be grateful if you could share measured 8oxo Score for these entries.
Reply with the value as a number alone.

Qu. Need 8oxo Score of `Cc1c(C)c2c(c(C)c1O)CC[C@@](C)(CCC[C@H](C)CCC[C@H](C)CCCC(C)C)O2` , thanks.
Ans. 18

Qu. // next record `C[N+](C)(C)[C@@H](Cc1c[nH]c(=S)[nH]1)C(=O)[O-]`
Ans. 14

Qu. Input O=C(O[C@@H]1Cc2c(O)cc(O)cc2O[C@@H]1c1cc(O)c(O)c(O)c1)c1cc(O)c(O)c(O)c1 [Epigallocatechin Gallate]
Ans. 18
